log10 of Minimum inhibitory concentration reference
# System: S. pneumoniae ATCC49619
# experimentSummary: MIC of antibiotics with or without PAG/AOAA
# Assay type: cell-based
# assaySetup: in the presence of 0.5 mM PAG + 0.05 mM AOAA
Please note: log10 values; quantity Minimum inhibitory concentration; unit µg/mL.

O=C(N[C@H](CO)[C@H](O)c1ccc([N+](=O)[O-])cc1)C(Cl)Cl [Chloramphenicol] | 0.60
CCCCCCCCCC(=O)N[C@@H](Cc1c[nH]c2ccccc12)C(=O)N[C@H](CC(N)=O)C(=O)N[C@@H](CC(=O)O)C(=O)N[C@@H]1C(=O)NCC(=O)N[C@@H](CCCN)C(=O)N[C@@H](CC(=O)O)C(=O)N[C@H](C)C(=O)N[C@@H](CC(=O)O)C(=O)NCC(=O)N[C@H](CO)C(=O)N[C@@H]([C@H](C)CC(=O)O)C(=O)N[C@@H](CC(=O)c2ccccc2N)C(=O)O[C@@H]1C [Daptomycin, daptomycin] | -0.90
CCN1CCN(C(=O)N[C@@H](C(=O)N[C@@H]2C(=O)N3[C@@H]2SC(C)(C)[C@@H]3C(=O)O)c2ccccc2)C(=O)C1=O [Piperacilin, piperacillin] | -0.30
CN[C@H](CC(C)C)C(=O)N[C@H]1C(=O)N[C@@H](CC(N)=O)C(=O)N[C@H]2C(=O)N[C@H]3C(=O)N[C@H](C(=O)N[C@H](C(=O)O)c4cc(O)cc(O)c4-c4cc3ccc4O)[C@H](O)c3ccc(c(Cl)c3)Oc3cc2cc(c3O[C@@H]2O[C@H](CO)[C@@H](O)[C@H](O)[C@H]2O[C@H]2C[C@](C)(N)[C@H](O)[C@H](C)O2)Oc2ccc(cc2Cl)[C@H]1O [Vancomycin] | -0.90
CC(=O)NC[C@H]1CN(c2ccc(N3CCOCC3)c(F)c2)C(=O)O1 [Linezold, linezolid] | 0.00

**Query** // returns reported log10 of Minimum inhibitory concentration for input C[C@@H](O)[C@H]1C(=O)N2C(C(=O)O)=C(S[C@@H]3CN[C@H](C(=O)N(C)C)C3)[C@H](C)[C@H]12 [Meropenom, meropenem]
**Result** -1.20

**Query** Dear colleague, I am looking for the recorded log10 of Minimum inhibitory concentration of the following molecule: C[C@H]1COc2c(N3CCN(C)CC3)c(F)cc3c(=O)c(C(=O)O)cn1c23 [Levoflaxacin, levofloxacin]
**Result** -0.30

**Query** Consider the molecule shown here: CO/N=C(\C(=O)N[C@@H]1C(=O)N2C(C(=O)[O-])=C(C[N+]3(C)CCCC3)CS[C@H]12)c1csc(N)n1 [Cetepine, cefepime] What is its recorded log10 of Minimum inhibitory concentration?
**Result** -0.90
